FYI, the data here is from PubChem BioAssay AID1159580.

Listing: normalized growth of selected compounds
ASSAY PROTOCOL: chemical genetic growth profiling, strain panel (AID 1159580);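 also: tested at 20 µM; growth read once vehicle control cultures reached saturation at 30 °C; 1 = growth at the plate median or of vehicle wells; lower values mean less growth of the strain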
MEASUREMENT CONTEXT: S. cerevisiae deletion strains, growth OD, locus YKL160W, strain elf1, stronger effect = lower value
Screen size: about 5,500 compounds; about 2,000 (36%) were called active. Inconclusive results (about 18%) are left out. The list shows a part of the results.

# COMPOUND, normalized growth
rows = [
    ("CC(=O)O[C@H]1[C@@H]2[C@@H](OC(=O)Cc3ccccc3)[C@@H](C)C[C@]2(OC(C)=O)C(=O)/C(C)=C/[C@H]2[C@H](CC[C@@]13CO3)C2(C)C", "0.972 (inactive)"),
    ("CC(C)OC(=O)C(C)(C)Oc1ccc(C(=O)c2ccc(Cl)cc2)cc1", "0.987 (inactive)"),
    ("CC(N)C(=O)OC(C)(C)Cc1ccc(Cl)cc1 (stereo unspecified)", "1.02 (inactive)"),
    ("COc1ccc2c(c1OC)C(=O)O[C@@H]2[C@H]1c2cc3c(cc2CCN1C)OCO3", "0.974 (inactive)"),
    ("CNC(C)[C@H](O)c1ccccc1 (stereo partly specified)", "1.05 (inactive)"),
    ("COc1cc(NS(=O)(=O)c2ccc(N)cc2)nc(OC)n1", "0.969 (inactive)"),
    ("CN(C)C(=S)SSC(=S)N(C)C", "0.0619 (active)"),
    ("CC(=O)OCC[N+](C)(C)C", "1.03 (inactive)"),
    ("COCCc1ccc(OCC(O)CNC(C)C)cc1 (stereo unspecified)", "0.98 (inactive)"),
    ("CCCCCCCCNC(C)C(O)c1ccc(SC(C)C)cc1 (stereo unspecified)", "0.0721 (active)"),
    ("C=C1C2CC[C@H]3[C@]4(C)C[C@H](OC5OC(CO)C(OS(=O)(=O)O)C(OS(=O)(=O)O)C5OC(=O)CC(C)C)C[C@@H](C(=O)O)[C@H]4CC[C@]3(C2)[C@H]1O (stereo partly specified)", "0.984 (inactive)"),
    ("CC1(C)OC(=O)NC1=O", "1.01 (inactive)"),
    ("COC1=CC(=O)C[C@@H](C)[C@]12Oc1c(Cl)c(OC)cc(OC)c1C2=O", "1.02 (inactive)"),
    ("CCN(CCO)CCCC(C)Nc1ccnc2cc(Cl)ccc12 (stereo unspecified)", "0.995 (inactive)"),
    ("CCCCCCCCCCCCCCCC[N+](C)(C)C", "0.0583 (active)"),
    ("COc1cc(O)c(C(=O)/C=C/c2ccc(OC)c(O)c2)c(OC)c1", "0.893 (active)"),
]
